# Protocol: IV and PO pharmacokinetic studies of prodrug salts (Iab, Ibb, Icb) in the rat, with historical parent data
# Assay type: in vivo, Sprague-Dawley rats
# Test conditions: male, Sprague-Dawley, plasma, 7.9 mg/kg, after oral prodrug, analyte = label, ND = not detected (<5 nM), read-out: AUCtot (μM·hr), PO
Quantity measured: AUC (µM·h)
Give your result in µM·h as a bare value.

input: Look up AUC: COc1ncc(OC)c2c(C(=O)C(=O)N3CCN(C(=O)c4ccccc4)CC3)c[nH]c12 [IVa]
output: 13

* * *

# Protocol: Single-dose oral toxicokinetic study of prodrugs in rats
# Assay type: in vivo, rat
# Test conditions: male, Sprague Dawley, rat, plasma, po, 236 mg/kg
# Procedure: A 1-day oral toxicokinetic study in rats was conducted using the prodrug Iab (monolysine salt). Iab was administered at dosages of 16, 72, and 267 mg/kg (free acid) by oral gavage to three male rats/group using water as the vehicle (solution formulation). The dosages of prodrug free acid correspond to IVa (parent) molar equivalent dosages of 13, 57, and 211 mg/kg, respectively. The endpoint evaluated was plasma toxicokinetics of Iab and IVa in the individual rats. […]
I'd appreciate it if you could supply Cmax values for the items below.
Give your result in µM as a bare value.

input: Look up Cmax: O=C(C(=O)N1CCN(C(=O)c2ccccc2)CC1)c1cn(COP(=O)(O)O)c2c(-n3ccnn3)ncc(F)c12
output: 0.25

input: Look up Cmax: O=C(C(=O)N1CCN(C(=O)c2ccccc2)CC1)c1c[nH]c2c(-n3ccnn3)ncc(F)c12
output: 290

* * *

# Protocol: IV and PO pharmacokinetic studies of prodrug salts (Iab, Ibb, Icb) in the rat, with historical parent data
# Type: in vivo, Sprague-Dawley rats
# Test conditions: plasma, oral, 5 mg/kg, read-out: C-24 hr
Quantity measured: concentration at 24 h (µM)
Give your result in µM as a bare value.

input: Look up concentration at 24 h: O=C(C(=O)N1CCN(C(=O)c2ccccc2)CC1)c1c[nH]c2c(-n3ccnn3)ncc(F)c12
output: 0.16

* * *

I'd appreciate it if you could supply Cmax values for the items below.
# Protocol: Single-dose oral toxicokinetic study of prodrugs in rats
# Assay type: in vivo, rat
# Test conditions: CD, rat, plasma; male rats, single oral dose Iab 16 mg/kg (13 mg/kg IVa molar equiv.), water; analyte = label
Give your result in µM as a bare value.

input: Look up Cmax: COc1cnc(OC)c2c1c(C(=O)C(=O)N1CCN(C(=O)c3ccccc3)CC1)cn2COP(=O)(O)O [Iab]
output: 0.068

input: Look up Cmax: COc1ncc(OC)c2c(C(=O)C(=O)N3CCN(C(=O)c4ccccc4)CC3)c[nH]c12 [IVa]
output: 26

* * *

# Protocol: Single-dose oral toxicokinetic study of prodrugs in rats
# Type: in vivo, rat
# Test conditions: male, Sprague Dawley, rat, plasma, po, 64 mg/kg; read-out: AUC from zero to last time point
Quantity measured: AUC (µM·h)
Give your result in µM·h as a bare value.

input: Look up AUC: O=C(C(=O)N1CCN(C(=O)c2ccccc2)CC1)c1cn(COP(=O)(O)O)c2c(-n3ccnn3)ncc(F)c12
output: 0.18

* * *

# Protocol: IV and PO pharmacokinetic studies of prodrug salts (Iab, Ibb, Icb) in the rat, with historical parent data
# Assay type: in vivo, Sprague-Dawley rats
# Test conditions: male, Sprague-Dawley, plasma, oral prodrug, calculated from historical IV data of parent, read-out: Bioavailability (%) of parent from prodrug
Quantity measured: bioavailability (%)
Give your result in % as a bare value.

input: Look up bioavailability: COc1cnc(-n2cnc(C)n2)c2[nH]cc(C(=O)C(=O)N3CCN(C(=O)c4ccccc4)CC3)c12
output: 80

input: Look up bioavailability: COc1ncc(OC)c2c(C(=O)C(=O)N3CCN(C(=O)c4ccccc4)CC3)c[nH]c12
output: 62

input: Look up bioavailability: O=C(C(=O)N1CCN(C(=O)c2ccccc2)CC1)c1c[nH]c2c(-n3ccnn3)ncc(F)c12
output: 50
